Catalogue of peptide exchange yield readings, one per entry.
# Measurement Target: T1, HLA-A*02:01 (peptide-receptive MHC class I monomer after UV-ligand exchange) (human)
# T1 construct: Monomers made with a UV-sensitive peptide that is cleaved by UV and exchanged for the test peptide; captured on streptavidin plates; also called MHC molecules
# Test Method Notes: UV-ligand exchange + anti-b2m ELISA; exchange yield grade: + >=10%, ++ >=20%, +++ >=50, ++++ >=75%

Incoming: # input binder: ILLDDQFQPKL [peptide ILLDDQFQPKL (SEQ ID NO: 108)] ; wanted: its peptide exchange yield
Outgoing: ≥ 75%

Incoming: Next entry: GLTETGLYRI [peptide GLTETGLYRI (SEQ ID NO: 110)]
Outgoing: 50 to 75%

Incoming: Next entry: RLALNTPKV [peptide RLALNTPKV (SEQ ID NO: 49)]
Outgoing: 20 to 50%
